[
  {
    "compound": "OCC1OC(n2cnc3c(NCc4ccco4)ncnc32)C(O)C1O (configuration not stated)",
    "melting point": "152 to 154 °C"
  },
  {
    "compound": "CCCCCCCCC(=O)CCCCCC",
    "melting point": "31 °C"
  },
  {
    "compound": "OC[C@H]1CC[C@H](CO)CC1",
    "melting point": "61 to 66 °C"
  },
  {
    "compound": "CC(=O)SCC(C)C(=O)N1CCCC1C(=O)O (configuration not stated)",
    "melting point": "76 to 82 °C"
  },
  {
    "compound": "O=Cc1ccc(Oc2cccnc2)o1",
    "melting point": "72 to 73 °C"
  },
  {
    "compound": "Cc1nc(-c2ccc(CBr)cc2)no1",
    "melting point": "103 to 104 °C"
  },
  {
    "compound": "OCc1ccc(-c2ccsc2)cc1",
    "melting point": "152 to 154 °C"
  }
]

###

property: melting point (°C)

[
  {
    "compound": "OCc1c2ccccc2cc2ccccc12",
    "units": "°C",
    "measured value": 163
  },
  {
    "compound": "C#CC1(O)CCC2C3CCC4=C(CCC(=O)C4)C3CCC21C (stereo unspecified)",
    "units": "°C",
    "measured value": 170
  },
  {
    "compound": "CCOC(=O)C1=C(NC(=O)c2ccco2)Oc2c(c(=O)oc3ccccc23)C1c1ccc(Br)cc1 (stereo unspecified)",
    "units": "°C",
    "measured value": 140
  },
  {
    "compound": "COc1ccc(C(=O)C2=NN(c3ccccc3)C3C(=O)N(c4cc(Cl)ccc4Cl)C(=O)C23)cc1 (stereo unspecified)",
    "units": "°C",
    "measured value": 240
  },
  {
    "compound": "CCOC(=O)Cn1c(=O)sc2cccc(Cl)c21",
    "units": "°C",
    "measured value": 79.2
  },
  {
    "compound": "O=C(c1ccccc1)c1ccccc1C(=O)c1ccccc1",
    "units": "°C",
    "measured value": 146
  },
  {
    "compound": "CC(=O)Oc1ccccc1C(=O)Oc1ccccc1C(=O)O",
    "units": "°C",
    "measured value": 159
  },
  {
    "compound": "CC(C)(C(=O)O)n1nnc2ccccc21",
    "units": "°C",
    "measured value": 182
  }
]

###

# melting point annotations
property: melting point (°C)

[
  {
    "mol": "NC(CO)CO",
    "property": "melting point",
    "measured value": 54
  },
  {
    "mol": "CCOC(=O)c1ccc(Br)cc1",
    "property": "melting point",
    "measured value": 18
  },
  {
    "mol": "CC(=O)c1c2ccccc2cc2ccccc12",
    "property": "melting point",
    "measured value": 74
  },
  {
    "mol": "O=[N+]([O-])c1c(Cl)cccc1-c1c[nH]cc1Cl",
    "property": "melting point",
    "measured value": 124
  },
  {
    "mol": "CC(C)(C)OC(=O)CN=C(c1ccccc1)c1ccccc1",
    "property": "melting point",
    "measured value": 114
  },
  {
    "mol": "CSC(=NOC(=O)N(C)C=C1C=NC=N1)C(=O)N(C)C",
    "property": "melting point",
    "measured value": 252
  },
  {
    "mol": "O=C(Nc1ccccc1CCc1ccccc1)c1ccccc1",
    "property": "melting point",
    "measured value": 166
  },
  {
    "mol": "Cc1ccc(Oc2ncccc2N)c2c1CCC2",
    "property": "melting point",
    "measured value": 150
  },
  {
    "mol": "O=C(O)c1cc(-c2ccco2)[nH]n1",
    "property": "melting point",
    "measured value": 220
  }
]

The measurements presented in this section are drawn from a melting point compilation (Tetko et al.).
